Tested on: HOP-92 NSCLC
Test: NCI tumour cell line growth inhibition, 48 h
Label rule met when TGI is at or above 20 µM; otherwise label rule not met.

Examples with answers:
molecule="Nc1ccn(C2OC(COC(=O)C34CC5CC(CC(C5)C3)C4)C(O)C2O)c(=O)n1 (stereo not given)" class="rule met"
molecule=O=C(NCc1cccc2ccccc12)N/N=C\c1ccc(Cl)cc1 class="rule met"
molecule="CCOP(=O)(OCC)C(N)c1ccc(Cl)cc1 (stereo not given)" class="rule met"
molecule="C=C(OC1C(C)=C2C(C1OC(=O)CCCCCCC)C(C)(OC(C)=O)CC(OC(=O)CCC)C1(O)C2OC(=O)C1(C)O)/C(C)=C/C (stereo not given)" class="rule not met"
molecule="CN(Cc1cc(Cl)cc(Cl)c1)CC(C(=O)c1ccccc1)c1ccccc1 (stereo not given)" class="rule met"
molecule=CCOC(=O)c1sc2[n+](c1C)C(=O)/C(=C/c1ccc([N+](=O)[O-])cc1)S2 class="rule met"
molecule=Cc1c2c(OCCN3CCCCC3)nn(C)c(=O)c2c(C)n1-c1ccccc1 class="rule met"
molecule=CCc1cc(CCC(=O)Nc2c(C)cccc2C)[nH]n1 class="rule met"

Input line: Check if TGI >= 20 µM (inclusive). Item: CN1C(=O)N[C@H]2[C@@H]3NC(=O)c4ccc(Br)n4[C@@H]3C[C@]21O
Output line: rule not met

Input line: Check if TGI >= 20 µM (inclusive). Item: O=S(=O)(/N=C(\NO)Nc1ccc(Cl)cc1)c1cccc2nsnc12
Output line: rule met

Input line: Check if TGI >= 20 µM (inclusive). Item: CC(C)C1=CC23CCC4C(C)(C(=O)O)CCCC4(C)C2CC1C1C(=O)N(c2ccccc2)C(=O)C13 (stereo not given)
Output line: rule met

Input line: Check if TGI >= 20 µM (inclusive). Item: Cc1ccc(N(CC(=O)Nc2ccc(S(=O)(=O)N3CCC(N4CCCC4)CC3)cc2)S(=O)(=O)c2ccc(Cl)cc2)cc1
Output line: rule not met

Input line: Check if TGI >= 20 µM (inclusive). Item: Cc1ccc2nc(-c3ccc(N4C(=O)C(Cl)C4c4ccc(Cl)cc4)cc3)sc2c1 (stereo not given)
Output line: rule not met

Input line: Check if TGI >= 20 µM (inclusive). Item: CCCC(CCC)C(=O)OCC1(CO)C/C(=C\c2ccc(F)cc2)C(=O)O1 (stereo not given)
Output line: rule not met

Input line: Check if TGI >= 20 µM (inclusive). Item: Cc1ccc(NC(=O)CSc2nc(=O)[nH]c3nc[nH]c23)cc1
Output line: rule met

Input line: Check if TGI >= 20 µM (inclusive). Item: Cc1cc(N(CCC#N)S(C)(=O)=O)ccc1C=Nc1ccc(C(=O)NN2C(=O)/C(=C/c3ccc(N(CCC#N)CCC#N)cc3C)N=C2c2cc([N+](=O)[O-])ccc2Cl)cc1
Output line: rule met

Input line: Check if TGI >= 20 µM (inclusive). Item: COc1cccc(NC(=O)c2sc3nc4c(cc3c2N)C(=O)CCC4)c1
Output line: rule met

Input line: Check if TGI >= 20 µM (inclusive). Item: c1c[nH]c(C23C4C5C6C4C2C6C53)n1 (stereo not given)
Output line: rule met

Input line: Check if TGI >= 20 µM (inclusive). Item: O=c1c2cccc3cccc(c4n1CCN=4)c32
Output line: rule met
